Molecular target: Polyamine deacetylase HDAC10 (Homo sapiens, UniProt Q969S8)
Sequence (Q969S8 whole entry): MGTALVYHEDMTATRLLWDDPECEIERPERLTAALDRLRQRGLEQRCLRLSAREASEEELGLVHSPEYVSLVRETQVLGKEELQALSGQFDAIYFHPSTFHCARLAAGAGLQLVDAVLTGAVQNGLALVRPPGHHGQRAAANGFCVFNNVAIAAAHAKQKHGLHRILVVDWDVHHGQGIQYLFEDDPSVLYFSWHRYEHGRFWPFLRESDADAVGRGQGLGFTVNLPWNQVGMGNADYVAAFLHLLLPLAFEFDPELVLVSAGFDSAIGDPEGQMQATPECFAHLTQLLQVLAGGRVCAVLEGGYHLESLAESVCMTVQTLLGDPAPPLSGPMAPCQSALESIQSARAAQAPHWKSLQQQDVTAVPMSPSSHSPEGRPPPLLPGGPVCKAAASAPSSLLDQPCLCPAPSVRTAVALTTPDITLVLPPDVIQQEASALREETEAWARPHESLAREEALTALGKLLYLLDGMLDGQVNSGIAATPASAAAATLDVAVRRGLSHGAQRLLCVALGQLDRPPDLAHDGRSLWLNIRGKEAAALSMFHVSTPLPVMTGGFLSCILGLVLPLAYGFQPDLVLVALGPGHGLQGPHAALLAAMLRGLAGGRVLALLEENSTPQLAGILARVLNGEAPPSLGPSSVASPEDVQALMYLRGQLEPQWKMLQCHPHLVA
Assay metric: IC50 (µM)
Give your result in µM as a bare value.

[Q] # get_value(readout='IC50', item= COc1ccc(CN(CCN(C)C)c2ccc(C(=O)Nc3ccccc3N)cn2)cc1 )
[A] 15.5

---

Target: Histone deacetylase 3/Nuclear receptor corepressor 2 (HDAC3/NCoR2) (Homo sapiens, UniProt O15379)
Assay metric: IC50 (µM)
State the answer as a number, implicitly in µM.

[Q] Any idea what its IC50 is? The compound is COc1ccc(CN(CCN(C)C)c2ccc(C(=O)Nc3ccccc3N)cn2)cc1
[A] 12

---

Biological target: Histone deacetylase 2 (Homo sapiens)
Sequence (Q92769 whole entry): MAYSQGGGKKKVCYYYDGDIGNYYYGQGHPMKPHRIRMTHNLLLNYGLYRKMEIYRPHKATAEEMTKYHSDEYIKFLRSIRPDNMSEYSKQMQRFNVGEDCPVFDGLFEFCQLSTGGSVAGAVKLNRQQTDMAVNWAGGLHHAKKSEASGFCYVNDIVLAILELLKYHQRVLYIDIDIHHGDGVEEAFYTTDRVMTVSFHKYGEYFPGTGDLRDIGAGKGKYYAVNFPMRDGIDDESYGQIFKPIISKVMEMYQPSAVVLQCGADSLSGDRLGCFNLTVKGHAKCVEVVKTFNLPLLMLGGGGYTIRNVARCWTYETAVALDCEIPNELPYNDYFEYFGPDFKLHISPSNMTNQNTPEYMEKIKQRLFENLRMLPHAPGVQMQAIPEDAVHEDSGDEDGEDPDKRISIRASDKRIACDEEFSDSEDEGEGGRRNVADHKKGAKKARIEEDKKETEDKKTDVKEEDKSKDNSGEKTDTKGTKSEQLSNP
Assay: Inhibition of recombinant human C-terminal FLAG-tagged HDAC2 expressed in baculovirus infected Sf9 insect cells using HDAC substrate 3 measured after 30 mins by fluorescence assay
Assay metric: pIC50
Quick note: pIC50 values are minus log10 of concentrations in mol/L.

[Q] For the molecule shown here, COc1ccc(CN(CCN(C)C)c2ccc(C(=O)Nc3ccccc3N)cn2)cc1 , give the reported pIC50.
[A] 5.26

---

Target: Protein deacetylase HDAC6 (Mus musculus) (UniProt Q9Z2V5)
Sequence (Q9Z2V5 whole entry): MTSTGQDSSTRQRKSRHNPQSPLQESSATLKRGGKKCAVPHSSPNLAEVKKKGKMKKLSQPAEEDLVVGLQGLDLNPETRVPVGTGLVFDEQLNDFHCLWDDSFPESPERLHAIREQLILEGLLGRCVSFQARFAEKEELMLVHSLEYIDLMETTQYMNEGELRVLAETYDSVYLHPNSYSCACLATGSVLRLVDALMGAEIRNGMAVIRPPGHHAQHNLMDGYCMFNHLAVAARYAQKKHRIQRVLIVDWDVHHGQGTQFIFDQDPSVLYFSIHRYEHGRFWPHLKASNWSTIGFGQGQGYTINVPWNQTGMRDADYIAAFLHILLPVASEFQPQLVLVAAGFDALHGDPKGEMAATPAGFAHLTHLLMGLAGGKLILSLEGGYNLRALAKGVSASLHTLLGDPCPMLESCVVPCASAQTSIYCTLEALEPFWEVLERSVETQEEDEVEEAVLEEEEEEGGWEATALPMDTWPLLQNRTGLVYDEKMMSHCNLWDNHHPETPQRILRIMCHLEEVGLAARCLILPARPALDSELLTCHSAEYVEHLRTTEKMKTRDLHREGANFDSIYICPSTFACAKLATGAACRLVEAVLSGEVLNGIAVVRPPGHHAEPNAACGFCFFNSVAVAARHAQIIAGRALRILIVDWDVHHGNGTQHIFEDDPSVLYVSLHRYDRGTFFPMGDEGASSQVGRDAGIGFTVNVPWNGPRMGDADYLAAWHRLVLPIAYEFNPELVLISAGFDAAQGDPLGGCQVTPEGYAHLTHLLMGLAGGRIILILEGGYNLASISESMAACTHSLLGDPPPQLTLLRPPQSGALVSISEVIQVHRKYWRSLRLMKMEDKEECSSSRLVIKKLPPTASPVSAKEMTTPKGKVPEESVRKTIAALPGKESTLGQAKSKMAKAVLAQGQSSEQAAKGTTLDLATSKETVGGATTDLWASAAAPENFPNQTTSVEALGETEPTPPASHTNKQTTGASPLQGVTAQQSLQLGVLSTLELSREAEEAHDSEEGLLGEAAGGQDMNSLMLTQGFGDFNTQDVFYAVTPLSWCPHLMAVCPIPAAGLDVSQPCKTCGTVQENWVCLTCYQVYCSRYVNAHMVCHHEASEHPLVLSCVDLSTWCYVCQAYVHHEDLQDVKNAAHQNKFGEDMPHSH
Assay: Inhibition of mouse HDAC6 expressed in 293T cells at 100 uM using Ac-KGLGK(Ac)-MCA as substrate measured after 30 mins by fluorescence assay relative to control
Assay metric: inhibition (%)
A number alone suffices; assume %.

Compound structure | Assay metric | Reported
COc1ccc(CN(CCN(C)C)c2ccc(C(=O)Nc3cc(-c4ccco4)ccc3N)cn2)cc1 | inhibition | 15
COc1ccc(CN(CCN(C)C)c2ccc(C(=O)Nc3cc(I)ccc3N)cn2)cc1 | inhibition | 16
COc1ccc(CN(CCN(C)C)c2ccc(C(=O)Nc3cc(Br)ccc3N)cn2)cc1 | inhibition | 21
COc1ccc(CN(CCN(C)C)c2ccc(C(=O)Nc3cc(-c4cccs4)ccc3N)cn2)cc1 | inhibition | 15
COc1ccc(CN(CCN(C)C)c2ccc(C(=O)Nc3cc(Cl)ccc3N)cn2)cc1 | inhibition | 7

[Q] Which inhibition value belongs to COc1ccc(CN(CCN(C)C)c2ccc(C(=O)Nc3ccccc3N)cn2)cc1 ?
[A] 11

---

Tested on: PYSOCA
Test: Substrate activity at PYSOCA in human CMEC/D3 cells assessed as Km for transporter-mediated drug uptake measured for 2 mins at 37degC
Type: ADME, cell-based
Conditions: hCMEC/D3 cells
Assay metric: Km at 2 min (µM)
Just the number please, in µM, no unit attached.

[Q] Entry COc1ccc(CN(CCN(C)C)c2ccc(C(=O)Nc3ccccc3N)cn2)cc1 has what Km at 2 min?
[A] 326

---

Molecular target: Histone deacetylase 1 (Homo sapiens)
Sequence (Q13547 whole entry): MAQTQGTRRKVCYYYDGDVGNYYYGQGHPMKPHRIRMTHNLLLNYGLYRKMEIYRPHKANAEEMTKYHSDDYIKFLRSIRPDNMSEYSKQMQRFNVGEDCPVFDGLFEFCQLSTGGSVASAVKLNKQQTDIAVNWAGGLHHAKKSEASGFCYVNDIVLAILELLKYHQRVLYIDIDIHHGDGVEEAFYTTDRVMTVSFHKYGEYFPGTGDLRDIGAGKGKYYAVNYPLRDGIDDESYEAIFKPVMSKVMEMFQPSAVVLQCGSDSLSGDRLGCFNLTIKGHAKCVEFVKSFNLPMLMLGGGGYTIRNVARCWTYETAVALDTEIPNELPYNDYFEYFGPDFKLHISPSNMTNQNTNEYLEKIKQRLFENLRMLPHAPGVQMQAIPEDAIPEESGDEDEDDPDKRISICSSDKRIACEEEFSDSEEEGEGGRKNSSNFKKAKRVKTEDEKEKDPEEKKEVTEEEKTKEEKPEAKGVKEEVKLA
Test: Inhibition of recombinant human C-terminal FLAG/His-tagged HDAC1 expressed in baculovirus infected Sf9 insect cells using HDAC substrate 3 measured after 30 mins by fluorescence assay
Assay metric: IC50
Report as: number unit

[Q] # input compound: COc1ccc(CN(CCN(C)C)c2ccc(C(=O)Nc3ccccc3N)cn2)cc1 ; wanted: its IC50
[A] 1500 nM

---

// inhibition lookup, one value per entry
Molecular target: Protein deacetylase HDAC6 (Mus musculus) (UniProt Q9Z2V5)
Assay: Inhibition of mouse HDAC6 expressed in 293T cells at 100 uM using Ac-KGLGK(Ac)-MCA as substrate measured after 30 mins by fluorescence assay relative to control
# output: bare number, implied unit %

The examples below pair each entry with its known result.
Compound structure | inhibition (%)
COc1ccc(CN(CCN(C)C)c2ccc(C(=O)Nc3cc(-c4ccccc4)ccc3N)cn2)cc1 | 14
CC(/C=C/C(=O)NO)=C\[C@@H](C)C(=O)c1ccc(N(C)C)cc1 | 98

[Q] Fill in: inhibition of CC(=O)Nc1ccc(C(=O)Nc2ccccc2N)cc1 is ___
[A] 18
